src = patent US9371328B2

- target.under.test: CK2A1 (CK2α/β) (Homo sapiens)
- Construct: made in house
- Sequence (P68400 whole entry, species assumed): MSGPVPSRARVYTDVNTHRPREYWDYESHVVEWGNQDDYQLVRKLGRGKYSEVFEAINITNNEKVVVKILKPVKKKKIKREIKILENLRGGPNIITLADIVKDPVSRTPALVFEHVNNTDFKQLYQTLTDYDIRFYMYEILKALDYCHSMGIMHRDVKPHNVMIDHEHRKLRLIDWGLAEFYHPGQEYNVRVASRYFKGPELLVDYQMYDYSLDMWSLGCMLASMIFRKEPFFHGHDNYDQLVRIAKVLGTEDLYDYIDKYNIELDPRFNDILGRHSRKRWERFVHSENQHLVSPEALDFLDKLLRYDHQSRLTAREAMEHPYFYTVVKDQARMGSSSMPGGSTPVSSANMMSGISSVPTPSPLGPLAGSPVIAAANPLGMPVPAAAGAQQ
- Sequence (P67870 whole entry partner, species assumed): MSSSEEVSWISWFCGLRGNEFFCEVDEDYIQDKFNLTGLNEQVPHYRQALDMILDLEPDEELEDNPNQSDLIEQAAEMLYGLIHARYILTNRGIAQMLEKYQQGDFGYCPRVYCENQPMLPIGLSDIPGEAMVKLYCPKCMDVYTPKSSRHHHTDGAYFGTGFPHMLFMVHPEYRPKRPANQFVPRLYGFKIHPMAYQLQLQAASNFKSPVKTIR
- test: CK2 kinase assay, CK2A1 (CK2α/β)
- Format: biochemical
- measurement.setup: Table 1; read-out: CK2A1 (CK2α/β) (IC50)
Lab note - cut at 800 nM for IC50: true (1) if strictly below, false (0) if not.

1. N#Cc1cnc2c(NC3CC3)cc(Nc3cccc(C(=O)O)c3)nn12: false (0)

Data request: In the record for COc1ccc(Nc2cc(Nc3ccc(OC(F)(F)F)c(-n4cnnc4)c3)nn3c(C#N)cnc23)nc1 , is IC50 less than 800 nM?
Data returned: true (1)

Data request: In the record for CN1CCN(C(=O)c2ccc(Nc3cc(NC4CC4)c4ncc(C#N)n4n3)cc2N)CC1 , is IC50 less than 800 nM?
Data returned: false (0)

Data request: In the record for COc1cc(Nc2cc(NC3CC3)c3ncc(C#N)n3n2)cc(-n2nnnc2C)c1 , is IC50 less than 800 nM?
Data returned: true (1)

Data request: In the record for Cc1nc(-c2cccc(Nc3cc(NC4CC4)c4ncc(C#N)n4n3)c2)cs1 , is IC50 less than 800 nM?
Data returned: false (0)

Data request: In the record for Cc1cc(Cl)c(Nc2cc(Nc3ccccn3)c3ncc(C#N)n3n2)cc1C#N , is IC50 less than 800 nM?
Data returned: true (1)

Data request: In the record for Cc1cc(O)nc2cc(Nc3cc(NC4CC4)c4ncc(C#N)n4n3)ccc12 , is IC50 less than 800 nM?
Data returned: true (1)

---

- target.under.test: CK2A2 (CK2α′/β) (Homo sapiens, UniProt P19784)
- Construct: made in house
- Sequence (P19784 whole entry, species assumed): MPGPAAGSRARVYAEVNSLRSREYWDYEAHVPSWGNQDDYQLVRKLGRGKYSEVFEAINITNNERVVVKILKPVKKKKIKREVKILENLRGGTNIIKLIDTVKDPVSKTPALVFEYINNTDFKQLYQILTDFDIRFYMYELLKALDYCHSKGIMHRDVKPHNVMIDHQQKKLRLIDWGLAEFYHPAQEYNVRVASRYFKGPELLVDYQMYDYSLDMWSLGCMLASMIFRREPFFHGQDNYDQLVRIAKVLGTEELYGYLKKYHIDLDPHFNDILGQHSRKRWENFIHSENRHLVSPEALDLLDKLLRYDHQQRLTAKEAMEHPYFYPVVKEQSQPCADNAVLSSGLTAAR
- Sequence (P67870 whole entry partner, species assumed): as the sequence (P67870 whole entry partner, species assumed) above
- test: CK2 kinase assay, CK2A2 (CK2α′/β)
- Format: biochemical
- measurement.setup: Table 1; read-out: CK2A2 (CK2α′/β) (IC50)
Grouping rule (IC50): lower range = under 4 nM, middle range = from 4 nM up to 60 nM, upper range = 60 nM and over

Take a look at these entries with their results.
1. COC(=O)Nc1cc(Nc2cc(NC3CC3)c3ncc(C#N)n3n2)ccc1C: lower range
2. CC(=O)Nc1cc(Nc2cc(NC3CC3)c3ncc(C#N)n3n2)ccc1C: middle range
3. N#Cc1ccnc(Nc2cc(NC3CC3)c3ncc(C#N)n3n2)c1: middle range
4. Cc1ccc(Nc2cc(NC3CC3)c3ncc(C#N)n3n2)cc1CC(=O)O: upper range
5. COc1ccc(-n2cncn2)cc1Nc1cc(NC2CC2)c2ncc(C#N)n2n1: middle range

Data request: # bin lookup: classify N#Cc1cnc2c(NC3CC3)cc(Nc3ccc(F)c(-n4cnnc4)c3)nn12 by its IC50
Data returned: lower range

Data request: # bin lookup: classify Cc1nc(-c2cccc(Nc3cc(NC4CC4)c4ncc(C#N)n4n3)c2)cs1 by its IC50
Data returned: upper range

Data request: # bin lookup: classify CCc1ccc(Nc2cc(NC3CC3)c3ncc(C#N)n3n2)cc1NS(C)(=O)=O by its IC50
Data returned: middle range

Data request: # bin lookup: classify COc1ccc(C#N)cc1Nc1cc(N)c2ncc(C#N)n2n1 by its IC50
Data returned: lower range

Data request: # bin lookup: classify COc1cc(Nc2cc(NC3CC3)c3ncc(C#N)n3n2)cc(-n2nnnc2C)c1 by its IC50
Data returned: middle range

---

- target.under.test: CK2A2 (CK2α′/β) (Homo sapiens)
- Construct: made in house
- test: CK2 kinase assay, CK2A2 (CK2α′/β)
- Type: biochemical
- measurement.setup: Table 1; read-out: CK2A2 (CK2α′/β) (IC50)
We begin with a simple list: items and their reported pIC50.
To interpret pIC50, take it as minus log10 of a concentration measured in moles per litre.

Worked examples follow.
1. N#Cc1cnc(Nc2cc(NC3CC3)c3ncc(C#N)n3n2)s1: 7.24
2. Cc1cc(Cl)c(Nc2cc(NC3CC3)c3ncc(C#N)n3n2)cc1C#N: 8.96
3. N#Cc1cnc2c(NC3CC3)cc(Nc3cccc(C(N)=O)c3)nn12: 7.81
4. CN1CCN(C(=O)c2ccc(Nc3cc(NC4CC4)c4ncc(C#N)n4n3)cc2N)CC1: 6.03

Read the next record carefully.
So, COC(=O)Nc1cc(Nc2cc(NC3CC3)c3ncc(C#N)n3n2)ccc1C(=O)N1CCN(C)CC1 ? Its pIC50 was 7.16
